target: F508delCFTR in primary hBE cells with F508del/F508del CFTR mutation (Homo sapiens, UniProt P13569, DEL508-508); construct: cells isolated from CF patients with the homozygous mutation; endogenous in cells; host or cells: primary human bronchial epithelial (hBE) cells from F508del/F508del CF patients; experiment: Transepithelial Clamp Circuit on Human Bronchial Epithelial Cells Conductance Assay (hBE-TECC); format: cell-based; details: testing concentration 3 μM
Sequence (P13569 with tags, fused parts or gaps DEL508-508): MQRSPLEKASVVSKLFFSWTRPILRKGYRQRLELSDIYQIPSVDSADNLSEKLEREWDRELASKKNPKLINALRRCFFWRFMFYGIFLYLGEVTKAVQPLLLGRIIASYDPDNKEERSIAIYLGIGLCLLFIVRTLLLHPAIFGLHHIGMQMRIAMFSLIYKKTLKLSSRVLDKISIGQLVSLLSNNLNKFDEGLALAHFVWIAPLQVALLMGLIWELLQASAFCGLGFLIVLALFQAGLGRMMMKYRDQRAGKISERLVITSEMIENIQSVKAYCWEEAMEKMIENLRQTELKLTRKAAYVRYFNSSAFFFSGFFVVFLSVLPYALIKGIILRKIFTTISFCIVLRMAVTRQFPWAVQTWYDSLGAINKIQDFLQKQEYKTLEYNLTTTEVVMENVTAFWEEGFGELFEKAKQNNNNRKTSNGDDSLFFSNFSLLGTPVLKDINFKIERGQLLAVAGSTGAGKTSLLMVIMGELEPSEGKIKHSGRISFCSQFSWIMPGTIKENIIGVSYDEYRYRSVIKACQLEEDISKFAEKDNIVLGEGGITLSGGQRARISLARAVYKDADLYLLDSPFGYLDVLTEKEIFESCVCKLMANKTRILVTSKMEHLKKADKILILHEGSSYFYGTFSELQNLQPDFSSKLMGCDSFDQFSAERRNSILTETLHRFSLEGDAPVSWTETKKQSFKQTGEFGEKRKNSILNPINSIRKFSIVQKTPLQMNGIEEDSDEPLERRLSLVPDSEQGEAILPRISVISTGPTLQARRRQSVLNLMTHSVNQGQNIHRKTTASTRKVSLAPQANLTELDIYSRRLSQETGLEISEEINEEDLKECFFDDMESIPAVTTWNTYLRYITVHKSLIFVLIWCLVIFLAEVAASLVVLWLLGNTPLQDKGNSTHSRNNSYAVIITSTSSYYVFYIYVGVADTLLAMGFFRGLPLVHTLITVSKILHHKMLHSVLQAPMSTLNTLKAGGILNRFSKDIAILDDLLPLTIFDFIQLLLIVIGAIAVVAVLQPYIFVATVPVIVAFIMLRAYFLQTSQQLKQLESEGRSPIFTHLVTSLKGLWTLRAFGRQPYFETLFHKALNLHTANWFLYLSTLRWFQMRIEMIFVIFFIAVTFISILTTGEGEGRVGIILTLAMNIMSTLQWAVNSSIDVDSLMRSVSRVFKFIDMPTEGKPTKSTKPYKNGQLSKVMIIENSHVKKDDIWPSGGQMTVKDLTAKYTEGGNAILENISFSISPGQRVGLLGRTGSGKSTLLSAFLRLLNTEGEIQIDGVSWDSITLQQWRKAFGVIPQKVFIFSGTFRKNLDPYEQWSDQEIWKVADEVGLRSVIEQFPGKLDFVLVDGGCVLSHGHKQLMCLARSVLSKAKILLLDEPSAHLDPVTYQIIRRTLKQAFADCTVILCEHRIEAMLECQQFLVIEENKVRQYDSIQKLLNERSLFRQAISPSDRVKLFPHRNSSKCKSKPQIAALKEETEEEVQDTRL
value-kind: Maximum % activity (%)
Dear colleague, please return just the value in %, with no unit written.

q: Which measured Maximum % activity (%) value corresponds to C[C@]1(C(=O)Nc2cc(C3CC3)nn(-c3ccc(C(=O)O)cc3)c2=O)COc2cc3c(cc21)OC(F)(F)O3 ?
a: 51

q: Which measured Maximum % activity (%) value corresponds to COc1ccc2c(c1)O[C@@H](c1ccc(C(=O)O)cc1)C[C@H]2NC(=O)C1(C)COc2c1ccc1c2OC(F)(F)O1 (stereo partly shown) ?
a: 47

q: Which measured Maximum % activity (%) value corresponds to CC1(C(=O)N[C@@H]2C[C@H](c3cccc(C(=O)O)c3)Oc3ccccc32)CCc2cc3c(cc21)OC(F)(F)O3 (stereo partly shown) ?
a: 80

q: Which measured Maximum % activity (%) value corresponds to C[C@]1(C(=O)Nc2cc(-c3ccccc3)nn(C[C@@H](O)CO)c2=O)COc2cc3c(cc21)OC(F)(F)O3 ?
a: 54

----------
Molecular target: F508delCFTR cell surface expression in CFBE41o-F508delCFTR-HRP cells (Homo sapiens, UniProt P13569, DEL508-508)
Construct: fused on or other part: Horseradish peroxidase (HRP) reporter inserted in the fourth exofacial (extracellular) loop of CFTR; expression is doxycycline-inducible
Sequence (P13569 with tags, fused parts or gaps DEL508-508 limits assumed): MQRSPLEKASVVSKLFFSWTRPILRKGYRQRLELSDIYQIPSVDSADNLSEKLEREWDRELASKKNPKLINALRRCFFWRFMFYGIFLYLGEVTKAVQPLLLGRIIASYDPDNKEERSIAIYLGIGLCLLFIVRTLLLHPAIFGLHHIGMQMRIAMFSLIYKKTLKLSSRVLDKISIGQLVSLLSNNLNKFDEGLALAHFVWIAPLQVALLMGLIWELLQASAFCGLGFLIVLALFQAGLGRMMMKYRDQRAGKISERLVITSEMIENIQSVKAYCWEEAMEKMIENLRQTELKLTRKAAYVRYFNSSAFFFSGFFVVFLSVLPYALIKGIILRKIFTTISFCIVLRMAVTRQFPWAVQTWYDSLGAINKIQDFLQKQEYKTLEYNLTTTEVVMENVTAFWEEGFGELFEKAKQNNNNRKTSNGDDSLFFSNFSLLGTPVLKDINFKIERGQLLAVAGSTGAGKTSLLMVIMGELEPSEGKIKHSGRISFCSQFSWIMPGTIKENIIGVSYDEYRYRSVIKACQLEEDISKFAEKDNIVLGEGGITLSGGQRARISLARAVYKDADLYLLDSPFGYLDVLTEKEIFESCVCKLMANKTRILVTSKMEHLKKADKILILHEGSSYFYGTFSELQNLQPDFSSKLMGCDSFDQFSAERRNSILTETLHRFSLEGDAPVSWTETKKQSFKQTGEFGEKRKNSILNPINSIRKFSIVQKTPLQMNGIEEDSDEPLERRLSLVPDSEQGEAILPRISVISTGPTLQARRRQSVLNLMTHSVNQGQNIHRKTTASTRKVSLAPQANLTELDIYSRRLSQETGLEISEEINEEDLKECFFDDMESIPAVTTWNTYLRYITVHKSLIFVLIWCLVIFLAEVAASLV
Sequence (P13569 919-1480 limits assumed, stated change not applied): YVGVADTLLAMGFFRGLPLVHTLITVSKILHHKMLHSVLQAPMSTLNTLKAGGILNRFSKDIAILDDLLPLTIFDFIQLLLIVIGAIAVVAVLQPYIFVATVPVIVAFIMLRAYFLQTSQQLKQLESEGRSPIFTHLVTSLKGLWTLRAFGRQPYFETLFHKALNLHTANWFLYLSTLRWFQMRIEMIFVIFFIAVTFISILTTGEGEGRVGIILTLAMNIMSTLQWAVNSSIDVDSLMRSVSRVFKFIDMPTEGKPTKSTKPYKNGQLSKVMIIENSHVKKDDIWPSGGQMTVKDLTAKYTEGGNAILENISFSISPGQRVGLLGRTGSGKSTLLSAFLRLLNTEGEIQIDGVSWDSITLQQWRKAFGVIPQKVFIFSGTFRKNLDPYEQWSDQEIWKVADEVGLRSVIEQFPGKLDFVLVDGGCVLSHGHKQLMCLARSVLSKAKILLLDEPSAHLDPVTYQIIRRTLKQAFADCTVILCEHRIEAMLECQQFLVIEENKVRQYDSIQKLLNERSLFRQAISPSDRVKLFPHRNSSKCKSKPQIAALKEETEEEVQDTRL
Assay: Cell Surface Expression-Horse Radish Peroxidase (CSE-HRP) Assay
Settings: CFBE41o-F508delCFTR-HRP cells, 18-24 hours at 33° C., 8-point curve, highest concentration 20 μM
Description: Cell Surface Expression-Horse Radish Peroxidase (CSE-HRP) Assay: A cellular assay for measuring the F508delCFTR cell surface expression after correction with test compounds was developed in human lung derived epithelial cell line (CFBE41o-) (Veit G et al, (2012) Mol Biol Cell. 23(21): 4188-4202). […] The raw counts from the experiment are analyzed using Accelrys® Assay Explorer v3.3. […]
For each entry below, report its pEC50 value.
// field semantics: pEC50 = negative decimal log of concentration (mol/L)

q: Which measured pEC50 value corresponds to Cc1ccc(NC(=O)[C@@]2(C)COc3cc4c(cc32)OC(F)(F)O4)nc1-c1cccc(S(=O)(=O)NC2CC2)c1 ?
a: 6.13

q: Which measured pEC50 value corresponds to C[C@]1(C(=O)N[C@@H]2C[C@H]([C@H]3CC[C@H](C(=O)N4C[C@@H](O)[C@H](O)C4)CC3)Oc3cc(OC(F)(F)F)ccc32)COc2cc3c(cc21)OC(F)(F)O3 ?
a: 7.05

q: Which measured pEC50 value corresponds to COc1ccc2c(c1)O[C@@H](c1ccc(C(=O)N3CCOCC3)cn1)C[C@H]2NC(=O)[C@@]1(C)COc2cc3c(cc21)OC(F)(F)O3 ?
a: 8.00

q: Which measured pEC50 value corresponds to CC(C)(C)c1cc2cc(NC(=O)[C@@]3(C)COc4cc5c(cc43)OC(F)(F)O5)ccc2[nH]1 ?
a: 5.88
